Source: the supplement of paper PMC8728848

Below, each of the binders is paired with its reported glycan array binding signal (z-score) value.
Target: Gal(b1-3)GlcNAc(b1-3)Gal(b1-4)GlcNAc(b1-2)[Gal(b1-3)GlcNAc(b1-3)Gal(b1-4)GlcNAc(b1-6)]Man(a1-6)[Gal(b1-3)GlcNAc(b1-3)Gal(b1-4)GlcNAc(b1-2)Man(a1-3)]Man(b1-4)GlcNAc(b1-4)[Fuc(a1-6)]GlcNAc
Assay method text: glycan array binding signal (z-score within array); higher = stronger binding
Applied conditions: glycan notation: IUPAC condensed, linker removed
The full list was thinned out, with the strongest signals kept by preference.
Measurement label: glycan array binding signal (z-score)

[[record]]
binder = "SGC, Q9M345 (protein) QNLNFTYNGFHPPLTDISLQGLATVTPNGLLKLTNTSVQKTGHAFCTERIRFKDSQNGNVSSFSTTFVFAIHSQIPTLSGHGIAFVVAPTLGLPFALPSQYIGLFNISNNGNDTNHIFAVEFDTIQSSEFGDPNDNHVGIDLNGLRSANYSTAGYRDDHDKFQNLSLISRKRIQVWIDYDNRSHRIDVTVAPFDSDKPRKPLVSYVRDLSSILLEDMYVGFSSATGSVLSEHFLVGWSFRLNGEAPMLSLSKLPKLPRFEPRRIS"
assay_result = 5.28

[[record]]
binder = "MXA PilAct-eGFP (Myxococcus xanthus), Q59589 (protein) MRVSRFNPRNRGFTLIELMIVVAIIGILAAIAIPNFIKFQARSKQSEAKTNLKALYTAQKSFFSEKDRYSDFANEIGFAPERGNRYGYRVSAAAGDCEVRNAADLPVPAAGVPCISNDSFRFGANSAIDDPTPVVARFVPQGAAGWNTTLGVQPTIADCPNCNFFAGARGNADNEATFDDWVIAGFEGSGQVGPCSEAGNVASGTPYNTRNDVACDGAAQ"
assay_result = 6.11

[[record]]
binder = "Nc3LysM (protein) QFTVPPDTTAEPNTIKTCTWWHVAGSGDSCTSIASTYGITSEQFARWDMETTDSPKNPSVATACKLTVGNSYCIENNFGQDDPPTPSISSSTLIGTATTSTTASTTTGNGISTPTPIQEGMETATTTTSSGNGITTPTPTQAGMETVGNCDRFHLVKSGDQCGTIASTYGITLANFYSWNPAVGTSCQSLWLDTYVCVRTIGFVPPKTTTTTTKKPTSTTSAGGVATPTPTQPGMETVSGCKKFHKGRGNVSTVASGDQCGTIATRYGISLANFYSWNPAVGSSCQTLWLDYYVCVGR"
assay_result = 0.304

[[record]]
binder = "MGL (Homo sapiens), Q8IUN9 (protein) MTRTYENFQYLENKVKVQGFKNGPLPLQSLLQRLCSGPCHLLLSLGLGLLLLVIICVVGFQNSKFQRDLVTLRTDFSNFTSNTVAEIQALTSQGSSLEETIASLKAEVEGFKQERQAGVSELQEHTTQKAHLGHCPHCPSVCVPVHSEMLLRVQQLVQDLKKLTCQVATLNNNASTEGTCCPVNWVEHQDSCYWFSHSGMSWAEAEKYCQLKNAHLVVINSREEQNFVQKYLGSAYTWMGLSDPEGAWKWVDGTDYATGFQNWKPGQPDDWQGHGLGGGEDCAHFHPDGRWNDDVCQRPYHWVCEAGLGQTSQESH"
assay_result = -0.049

[[record]]
binder = "EUL D1A second (Oryza sativa) (protein) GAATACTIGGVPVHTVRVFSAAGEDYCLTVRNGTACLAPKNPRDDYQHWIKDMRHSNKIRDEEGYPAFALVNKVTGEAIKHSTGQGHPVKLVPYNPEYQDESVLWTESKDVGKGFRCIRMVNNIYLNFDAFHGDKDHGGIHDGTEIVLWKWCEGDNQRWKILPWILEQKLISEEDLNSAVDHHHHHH"
assay_result = 4.86

[[record]]
binder = "Dectin2 (Homo sapiens), Q6EIG7 (protein) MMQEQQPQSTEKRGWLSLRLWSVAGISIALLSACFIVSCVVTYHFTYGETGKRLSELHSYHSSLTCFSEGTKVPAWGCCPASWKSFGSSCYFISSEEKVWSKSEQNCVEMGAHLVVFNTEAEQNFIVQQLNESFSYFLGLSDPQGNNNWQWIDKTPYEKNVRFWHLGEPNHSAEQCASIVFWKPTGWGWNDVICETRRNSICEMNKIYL"
assay_result = 1.31

[[record]]
binder = "MSMEG3662-2a (Mycobacterium smegmatis), A0QYH7_MYCS2 (protein) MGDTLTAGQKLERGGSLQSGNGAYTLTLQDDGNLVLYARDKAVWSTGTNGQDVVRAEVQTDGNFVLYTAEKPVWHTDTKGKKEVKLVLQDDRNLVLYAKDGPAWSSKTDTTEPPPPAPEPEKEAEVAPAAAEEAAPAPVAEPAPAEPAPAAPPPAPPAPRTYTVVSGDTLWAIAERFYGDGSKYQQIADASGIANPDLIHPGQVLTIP"
assay_result = 0.25

[[record]]
binder = "Nc3LysM-2 (protein) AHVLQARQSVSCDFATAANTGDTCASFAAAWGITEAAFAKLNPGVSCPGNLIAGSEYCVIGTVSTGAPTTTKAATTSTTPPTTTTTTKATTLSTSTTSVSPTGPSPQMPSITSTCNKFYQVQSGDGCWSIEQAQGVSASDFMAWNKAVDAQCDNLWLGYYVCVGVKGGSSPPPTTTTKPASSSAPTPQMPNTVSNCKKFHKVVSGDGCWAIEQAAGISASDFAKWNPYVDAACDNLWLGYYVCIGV"
assay_result = 2.73

[[record]]
binder = "Mermaid1 (Stilbonema majum) (protein) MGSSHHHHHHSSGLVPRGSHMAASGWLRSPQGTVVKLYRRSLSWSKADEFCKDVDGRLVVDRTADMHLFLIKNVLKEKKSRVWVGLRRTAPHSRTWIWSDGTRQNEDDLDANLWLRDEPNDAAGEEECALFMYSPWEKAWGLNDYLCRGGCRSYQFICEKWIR"
assay_result = 4.98

[[record]]
binder = "Agalectin (Anopheles gambiae) (protein) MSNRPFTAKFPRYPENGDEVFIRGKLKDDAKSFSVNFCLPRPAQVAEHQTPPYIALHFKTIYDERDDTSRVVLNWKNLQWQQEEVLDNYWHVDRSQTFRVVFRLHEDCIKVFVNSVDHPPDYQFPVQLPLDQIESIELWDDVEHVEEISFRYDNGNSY"
assay_result = 3.14

